- Target or system: Serine/threonine-protein kinase PLK1 (Homo sapiens)
- Protocol summary: Inhibition of human recombinant PLK1 by Z-Lyte assay
pIC50: −log10 of the molar value.
Quantity measured: pIC50

Completed entries (count: 2):
1. CCC[C@@H]1C(=O)N(C)c2cnc(Nc3ccc(C(=O)NC4CCN(C)CC4)cc3OC)nc2N1C1CCCC1 : 8.00
2. COc1cc(C(=O)NC2CCNCC2)ccc1Nc1ncc2c(n1)N(C1CCCC1)[C@H](C)C(=O)N2C : 8.05

A. C[C@H]1C(=O)N(C)c2cnc(Nc3ccc(C(=O)NC4CCN(C)CC4)cc3OC3CCCC3)nc2N1C1CCCC1
B. COc1cc(C(=O)NCCc2ccccc2)ccc1Nc1ncc2c(n1)N(C1CCCC1)[C@H](C)C(=O)N2C
Sort A and B by pIC50 descending and give the first. Pick one and reply with its label.
B

###

- Target or system: Serine/threonine-protein kinase PLK1 (Homo sapiens, UniProt P53350)
- Sequence (P53350 whole entry): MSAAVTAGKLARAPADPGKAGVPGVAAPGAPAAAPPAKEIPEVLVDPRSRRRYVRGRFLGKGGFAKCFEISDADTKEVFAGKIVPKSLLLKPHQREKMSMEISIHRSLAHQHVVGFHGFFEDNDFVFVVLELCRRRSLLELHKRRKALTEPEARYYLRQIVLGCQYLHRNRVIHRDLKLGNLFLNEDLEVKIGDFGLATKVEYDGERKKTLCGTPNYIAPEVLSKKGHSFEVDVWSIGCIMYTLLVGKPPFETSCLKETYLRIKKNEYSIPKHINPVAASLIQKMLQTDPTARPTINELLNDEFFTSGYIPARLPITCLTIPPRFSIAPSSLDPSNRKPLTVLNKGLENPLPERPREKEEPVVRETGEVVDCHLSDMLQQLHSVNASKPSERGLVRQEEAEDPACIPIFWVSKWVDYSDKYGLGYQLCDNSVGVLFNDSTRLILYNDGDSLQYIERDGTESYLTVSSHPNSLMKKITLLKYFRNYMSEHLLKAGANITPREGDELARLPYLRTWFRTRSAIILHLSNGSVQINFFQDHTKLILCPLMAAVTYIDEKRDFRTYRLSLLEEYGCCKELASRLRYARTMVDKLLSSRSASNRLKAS
- Protocol summary: Inhibition of human recombinant PLK1 by Z-Lyte assay
pIC50: −log10 of the molar value.
Quantity measured: pIC50

Completed entries (count: 10):
1) COc1cc(C(=O)NC2CCN(C)CC2)ccc1Nc1ncc2c(n1)N(C(C)C)[C@H](C)C(=O)N2C : 7.60
2) CC[C@@H]1C(=O)N(C)c2cnc(Nc3ccc(C(=O)NC4CCN(C)CC4)cc3OC)nc2N1C(C)C : 8.40
3) CC[C@@H]1C(=O)Nc2cnc(Nc3ccc(C(=O)NC4CCN(C)CC4)cc3OC)nc2N1C1CCCCC1 : 7.43
4) COc1cc(C(=O)NC2CCN(C)CC2)ccc1Nc1ncc2c(n1)N(C1CCCC1)[C@@H](C)C(=O)N2C : 8.06
5) CCC[C@@H]1C(=O)N(C)c2cnc(Nc3ccc(C(=O)NC4CCN(C)CC4)cc3OC3CCCC3)nc2N1C1CCCC1 : 7.33
6) COC(=O)c1ccc(Nc2ncc3c(n2)N(C2CCCC2)[C@H](C)C(=O)N3C)c(OC2CCCC2)c1 : 6.34
7) COc1cc(C(=O)NCCN(C)C)ccc1Nc1ncc2c(n1)N(C1CCCC1)[C@H](C)C(=O)N2C : 7.68
8) COc1cc(C(=O)NC2CCCCC2)ccc1Nc1ncc2c(n1)N(C1CCCC1)[C@H](C)C(=O)N2C : 6.80
9) COc1cc(C(=O)NC2CCN(C)CC2)ccc1Nc1ncc2c(n1)N(C1CCCCC1)[C@H](C)C(=O)N2C : 8.07
10) C[C@@H]1C(=O)N(C)c2cnc(Nc3ccc(C(=O)NC4CCN(C)CC4)cc3OC3CCCC3)nc2N1C1CCCC1 : 7.40

1. COc1cc(C(=O)NC2CCN(C)CC2)ccc1Nc1ncc2c(n1)N(C(C)C)[C@H](CC(C)C)C(=O)N2C
2. COc1cc(C(=O)N2CCCCC2)ccc1Nc1ncc2c(n1)N(C1CCCC1)[C@H](C)C(=O)N2C
Sort 1 and 2 by pIC50 descending and give the first. Pick one and reply with its label.
2

###

- Target or system: Bromodomain testis-specific protein (Homo sapiens, UniProt Q58F21)
- Protocol summary: Inhibition of BRDT-BD1 (unknown origin) incubated for 1 hr by AlphaScreen biotin-JQ1 competition assay
Quantity measured: IC50 (µM)

1) C[C@@H]1C(=O)N(C)c2cnc(Nc3ccc(C(=O)NC4CCN(C)CC4)cc3OC3CCCC3)nc2N1C1CCCC1 : 0.102
2) COc1cc(C(=O)NC2CCN(C)CC2)ccc1Nc1ncc2c(n1)N(C(C)C)[C@H](C)C(=O)N2C : 0.978
3) COc1cc(C(=O)NCCc2ccccc2)ccc1Nc1ncc2c(n1)N(C1CCCC1)[C@H](C)C(=O)N2C : 0.558
4) COc1cc(C(=O)NC2CCCCC2)ccc1Nc1ncc2c(n1)N(C1CCCC1)[C@H](C)C(=O)N2C : 0.378
5) CCC[C@@H]1C(=O)N(C)c2cnc(Nc3ccc(C(=O)NC4CCN(C)CC4)cc3OC3CCCC3)nc2N1C1CCCC1 : 1.95

A. COc1cc(C(=O)NC2CCN(C)CC2)ccc1Nc1ncc2c(n1)N(C1CCCC1)[C@@H](C)C(=O)N2C
B. CN1CCC(NC(=O)c2ccc(Nc3ncc4c(n3)N(C3CCCC3)CC(=O)N4C)c(OC3CCCC3)c2)CC1
Sort A and B by IC50 descending and give the first. Pick one and reply with its label.
B

###

- Target or system: Bromodomain-containing protein 4 (Homo sapiens)
- Protocol summary: Inhibition of BRD4-BD1 (unknown origin) incubated for 1 hr by AlphaScreen biotin-JQ1 competition assay
Quantity measured: IC50

Completed entries (count: 2):
1) CC[C@@H]1C(=O)Nc2cnc(Nc3ccc(C(=O)NC4CCN(C)CC4)cc3OC)nc2N1C1CCCCC1 : > 10 µM
2) CC[C@@H]1C(=O)Nc2cnc(Nc3ccc(C(=O)NC4CCN(C)CC4)cc3OC)nc2N1C(C)C : > 10 µM

We next turn to a different molecule, shown below.
IC50 reading for COc1cc(C(=O)NC2CCN(C)CC2)ccc1Nc1ncc2c(n1)N(C1CCOCC1)[C@H](CC(C)C)C(=O)N2C : > 50 µM

###

- Target or system: Serine/threonine-protein kinase PLK1 (Homo sapiens, UniProt P53350)
- Protocol summary: Inhibition of human recombinant PLK1 by Z-Lyte assay
Quantity measured: IC50 (nM)

1) COc1cc(C(=O)NC2CCN(C)CC2)ccc1Nc1ncc2c(n1)N(C1CCOCC1)[C@H](CC(C)C)C(=O)N2C : 322

I. COc1cc(C(=O)NC2CCN(C)CC2)ccc1Nc1ncc2c(n1)N(C1CCCC1)CC(=O)N2C
II. CC[C@@H]1C(=O)Nc2cnc(Nc3ccc(C(=O)NC4CCN(C)CC4)cc3OC)nc2N1C(C)C
III. COc1cc(C(=O)NC2CCN(C)CC2)ccc1Nc1ncc2c(n1)N(C1CCCC1)[C@H](C)C(=O)N2C
IV. CC[C@@H]1C(=O)N(C)c2cnc(Nc3ccc(C(=O)NC4CCN(C)CC4)cc3OC)nc2N1C1CCCCC1
Ordering criterion: IC50; begin with the maximum. The response must list the labels following the requested ordering.
II, I, IV, III

###

- Target or system: Bromodomain testis-specific protein (Homo sapiens, UniProt Q58F21)
- Protocol summary: Inhibition of BRDT-BD1 (unknown origin) incubated for 1 hr by AlphaScreen biotin-JQ1 competition assay
pIC50: −log10 of the molar value.
Quantity measured: pIC50

I. COc1cc(C(=O)NC2CCN(C)CC2)ccc1Nc1ncc2c(n1)N(C1CCCCC1)[C@H](C)C(=O)N2C
II. COc1cc(C(=O)NCCN(C)C)ccc1Nc1ncc2c(n1)N(C1CCCC1)[C@H](C)C(=O)N2C
III. C[C@H]1C(=O)N(C)c2cnc(Nc3ccc(C(=O)NC4CCN(C)CC4)cc3OC3CCCC3)nc2N1C1CCCC1
IV. COc1cc(C(=O)NC2CCN(C)CC2)ccc1Nc1ncc2c(n1)N(C1CCCC1)CC(=O)N2C
I'd appreciate it if you could rank the molecules mentioned above by pIC50, largest value first. The response must list the labels following the requested ordering.
III, II, I, IV

P. COC(=O)c1ccc(Nc2ncc3c(n2)N(C2CCCC2)[C@H](C)C(=O)N3C)c(OC2CCCC2)c1
Q. COc1cc(C(=O)N2CCCCC2)ccc1Nc1ncc2c(n1)N(C1CCCC1)[C@H](C)C(=O)N2C
R. CCC[C@@H]1C(=O)N(C)c2cnc(Nc3ccc(C(=O)NC4CCN(C)CC4)cc3OC)nc2N1C1CCCC1
Ordering criterion: pIC50; begin with the maximum. The response must list the labels following the requested ordering.
Q, P, R

P. COc1cc(C(=O)NC2CCNCC2)ccc1Nc1ncc2c(n1)N(C1CCCC1)[C@H](C)C(=O)N2C
Q. COc1cc(C(=O)NC2CCN(C)CC2)ccc1Nc1ncc2c(n1)N(C1CCCC1)[C@H](C)C(=O)N2C
Field: lower recorded pIC50 (choose P or Q ) Pick one and reply with its label.
P
